# target system: Mannose-6-phosphate isomerase (Homo sapiens) (UniProt P34949)
# Sequence (P34949 whole entry, looked up): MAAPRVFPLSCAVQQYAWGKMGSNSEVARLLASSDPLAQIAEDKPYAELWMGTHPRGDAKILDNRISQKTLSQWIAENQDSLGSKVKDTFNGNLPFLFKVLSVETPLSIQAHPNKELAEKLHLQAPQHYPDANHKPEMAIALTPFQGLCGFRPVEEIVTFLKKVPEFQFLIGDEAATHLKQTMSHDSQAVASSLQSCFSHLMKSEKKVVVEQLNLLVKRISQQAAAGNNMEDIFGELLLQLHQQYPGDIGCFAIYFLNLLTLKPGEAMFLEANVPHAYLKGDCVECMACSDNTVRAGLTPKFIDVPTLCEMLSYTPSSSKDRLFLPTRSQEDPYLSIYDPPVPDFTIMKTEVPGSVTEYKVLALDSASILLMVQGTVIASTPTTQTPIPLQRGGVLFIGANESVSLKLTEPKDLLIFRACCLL
# protocol summary: MPI inhibition at elevated mannose 6-phosphate – biochemical, fluorescence intensity, high mannose 6-phosphate, primary screen (AID 1220)
# condition details: recombinant PMI enzyme, coupled fluorescence intensity; at 20 µM; stronger effect = higher value
Hit rate of the full screen: of about 190,000 compounds, about 1,300 (0.68%) were called active. The full list was thinned out, with actives kept by preference.
Documented inhibition across a set of compounds
readout kind: inhibition (%)

compound	assay value
FC(F)(F)c1cnc(Oc2cccc3ccccc23)c(Cl)c1	10.7
NC(=O)NC(=O)CC1S/C(=N/N=C2/NC(=O)CS2)NC1=O (stereo not drawn)	24.9
Cc1cc(NC(=O)COC(=O)c2ccco2)no1	-0.8
CN1CCN(C(=O)C2=C[C@@H](c3ccccc3)C[C@@H](OCc3ccc(CO)cc3)O2)CC1	1.7
O=C(O)c1cccc(NS(=O)(=O)c2ccc3nnn(O)c3c2)c1	11.9
COc1ccc(NC(=O)Nc2ccc(N3CCOCC3)c3nonc23)c(OC)c1	55.8
COc1cc2c(cc1NC(=O)CSc1cccc[n+]1[O-])oc1ccccc12	-6.2
O=C(Nc1ccc([N+](=O)[O-])cc1)Nc1ccc(N2CCOCC2)c2nonc12	57.9
NC(=O)NC(=O)CC1S/C(=N/N=C2\CSC(=O)N2)NC1=O (stereo not drawn)	50.5
Cc1c(C(=O)NC(C)CCc2ccccc2)cccc1[N+](=O)[O-] (stereo not drawn)	10.1
CC(=O)c1c(C)[nH]c(C(=O)NCCc2ccccc2)c1C	2.6
COc1cccc(CC2(CO)CCN(Cc3ccc4cccc(F)c4n3)CC2)c1	13.1
Cc1ccc(NCC(=O)N=Nc2c(O)n(C)c3ccccc23)cc1	-2.1
O=C(O)C1CCCCC1C(=O)Nc1cccc2ccccc12 (stereo not drawn)	54.6
O=C(Nc1ccc(F)cc1)Nc1ccc(N2CCOCC2)c2nonc12	38
O=C(O)C1CCCCC1C(=O)Nc1ccccc1F (stereo not drawn)	7
O=C(CN1CCN(c2ccc(O)cc2)CC1)Nc1ccc2c(c1)OCCO2	62.8
O=C(CN1CCN(c2ccccc2)CC1)Nc1ccc2c(c1)OCCO2	-3.7
Cc1cc(C(F)F)n2nc(C(=O)Nc3ccccc3Br)nc2n1	-3.5
CC1=C(C#N)c2nc(N)c(C#N)c(C)c2/C1=C\c1ccc(-c2ccccc2C(=O)O)o1	10.6
Fc1ccc(CNC(=S)Nc2ccc(OC(F)F)cc2)cc1	5.2
COc1cc(-c2n[nH]c(=S)n2-c2cc(C(F)(F)F)ccc2Cl)cc(OC)c1OC	8.8
NC(=O)NC(=O)CC1S/C(=N/N=C/c2ccccc2)NC1=O (stereo not drawn)	-2

----------
# target system: Mannose-6-phosphate isomerase (Homo sapiens) (UniProt P34949)
# protocol summary: MPI inhibition at elevated mannose 6-phosphate – biochemical, fluorescence intensity, high mannose 6-phosphate, primary screen (AID 1220)
# condition details: recombinant PMI enzyme, coupled fluorescence intensity; at 20 µM
The campaign covered roughly 190,000 compounds. About 1,300 (0.68%) were called active. Rule as the data show it: active = inhibition above about 50%; inactive = the rest. Many of the other results were omitted from the sample, so actives are more common in it than they were.
Labels: active, inactive

compound	group
COc1ccc(CNCC(O)(c2ccccc2)c2ccccc2)cc1OC	inactive
COc1ccccc1Nc1ccc(N)cc1	inactive
N#Cc1cc2c(nc1SC1CC(=O)N(c3ccccc3)C1=O)CCC2 (stereo not given)	inactive
COc1ccc(CNCC(O)(c2ccc(Cl)cc2)c2ccc(Cl)cc2)cc1OC	active
Clc1ccc(-c2nnc3n2CCCCS3)cc1	inactive
O=C(Cc1csc(N2CCOCC2)n1)N/N=C/c1ccc(Cl)cc1Cl	inactive
O=C(Oc1ccc2ccc(=O)oc2c1)C1CCCCC1	inactive
O=C(Cc1csc(N2CCOCC2)n1)N/N=C/c1cccc(O)c1	inactive
CNc1oc(-c2ccc(Cl)cc2)nc1C#N	inactive
COc1ccc(N2C(=O)CC(Sc3nc4c(cc3C#N)CCC4)C2=O)cc1 (stereo not given)	active

----------
# target system: Mannose-6-phosphate isomerase (Homo sapiens)
# protocol summary: MPI inhibition at elevated mannose 6-phosphate – biochemical, fluorescence intensity, high mannose 6-phosphate, primary screen (AID 1220)
# condition details: recombinant PMI enzyme, coupled fluorescence intensity; at 20 µM
The campaign covered roughly 190,000 compounds. About 1,300 (0.68%) were called active. Cut-off read from the data, not from the text of the source: active = inhibition above about 50%; inactive = the rest. Many of the other results were omitted from the sample, so actives are more common in it than they were.
Possible outcomes: YES (active), NO (inactive)

smiles representation	group
O=C(COc1cccc2cccnc12)NCc1cccs1	NO
O=C(COc1cccc2cccnc12)NCC(F)(F)F	YES
Cc1cc(NC(=O)COc2cccc(C)c2C)no1	NO
O=C(COc1cccc2cccnc12)Nc1ccccc1	NO
O=C(CCCNC(=O)/C(=C\c1ccc(F)cc1)NC(=O)c1ccccc1)OCc1ccccc1	NO
O=C(O)CCNS(=O)(=O)c1ccccc1Br	NO

----------
# target system: Mannose-6-phosphate isomerase (Homo sapiens) (UniProt P34949)
# protocol summary: MPI inhibition at elevated mannose 6-phosphate – biochemical, fluorescence intensity, high mannose 6-phosphate, primary screen (AID 1220)
# condition details: recombinant PMI enzyme, coupled fluorescence intensity; at 20 µM
In all, about 190,000 compounds went through this assay and about 1,300 (0.68%) were called active. Cut-off read from the data, not from the text of the source: active = inhibition above about 50%; inactive = the rest. The entries come from a sample that favours actives as a whole.
Outcomes: TRUE = active, FALSE = inactive

compound	group
O=C(Nc1ccc2c(c1)CCC2)Nc1ccc2c(c1)OCO2	FALSE
COc1ccc(C2CC(=O)N3CN(c4ccc(C)c(Cl)c4)CSC3=C2C#N)cc1 (stereo unspecified)	FALSE
CC(C)CSc1n[nH]c(N)n1	FALSE
O=C(O)Cn1c2c(c3ccccc31)CCCC2	TRUE
O=C(O)Cn1c2ccccc2c2ccccc21	FALSE
O=C(NC1CCCc2ccccc21)c1ccc(CNc2c(N3CCOCC3)c(=O)c2=O)cc1 (stereo unspecified)	FALSE
N#CC1=C2SCN(Cc3ccco3)CN2C(=O)CC1c1ccc(Cl)cc1 (stereo unspecified)	TRUE
Cc1ccc(C2CC(=O)N3CN(c4ccc(Br)cc4)CSC3=C2C#N)o1 (stereo unspecified)	FALSE
N#CC1=C2SCN(Cc3ccco3)CN2C(=O)CC1c1c(F)cccc1Cl (stereo unspecified)	FALSE
Cc1cccc(N2CSC3=C(C#N)C(c4ccc(C)o4)CC(=O)N3C2)c1 (stereo unspecified)	FALSE
N#CC1=C2SCN(c3ccc(F)cc3)CN2C(=O)CC1c1cccc(F)c1 (stereo unspecified)	FALSE

----------
# target system: Mannose-6-phosphate isomerase (Homo sapiens)
# protocol summary: MPI inhibition at elevated mannose 6-phosphate – biochemical, fluorescence intensity, high mannose 6-phosphate, primary screen (AID 1220)
# condition details: recombinant PMI enzyme, coupled fluorescence intensity; at 20 µM; stronger effect = higher value
Screen size: about 190,000 compounds; about 1,300 (0.68%) were called active. Shown is part of a subset that was picked to be rich in actives.
Entries annotated with measured inhibition
readout kind: inhibition (%)

compound	target system	readout kind	assay value
O=C(Cn1nc(CNc2ccc(Cl)cc2)[n+]2c1CCCCC2)c1ccc(Br)cc1	Mannose-6-phosphate isomerase (Homo sapiens)	inhibition	9.2
COc1ccc(N2C(=O)CC(n3c(CCCCO)nc4ccccc43)C2=O)cc1 (stereo unspecified)	Mannose-6-phosphate isomerase (Homo sapiens)	inhibition	-9.5
O=C(O)c1ccc(Cl)c(S(=O)(=O)Nc2ccccc2N2CCOCC2)c1	Mannose-6-phosphate isomerase (Homo sapiens)	inhibition	-3.7
Cc1ccc(OCCC(=O)Nc2ccc(C)c(F)c2)cc1	Mannose-6-phosphate isomerase (Homo sapiens)	inhibition	16.2
CCOC(=O)Cc1nnc(-c2ccccc2)o1	Mannose-6-phosphate isomerase (Homo sapiens)	inhibition	40.2
Cc1ccc(/C=C(/C#N)C(=O)NC(=O)Oc2ccccc2)cc1	Mannose-6-phosphate isomerase (Homo sapiens)	inhibition	3.4
Cn1c(=O)[nH]c(=O)c2[nH]c(N(Cc3ccccc3)Cc3ccccc3)nc21	Mannose-6-phosphate isomerase (Homo sapiens)	inhibition	10.1
O=C(CCN1C(=O)COc2ccccc21)NCCC1=CCCCC1	Mannose-6-phosphate isomerase (Homo sapiens)	inhibition	19.9
CCn1c2ccccc2c2nc3ccccc3nc21	Mannose-6-phosphate isomerase (Homo sapiens)	inhibition	8.1
CC(C)=CCN1CCN(Cc2cnc(N3CCOCC3)s2)CC1CCO (stereo unspecified)	Mannose-6-phosphate isomerase (Homo sapiens)	inhibition	-6.5
COc1ccc(/C=C/C(=O)c2ccoc2)cc1	Mannose-6-phosphate isomerase (Homo sapiens)	inhibition	3.7

----------
# target system: Mannose-6-phosphate isomerase (Homo sapiens)
# protocol summary: MPI inhibition at elevated mannose 6-phosphate – biochemical, fluorescence intensity, high mannose 6-phosphate, primary screen (AID 1220)
# condition details: recombinant PMI enzyme, coupled fluorescence intensity; at 20 µM; stronger effect = higher value
The whole screen tested about 190,000 compounds, of which about 1,300 (0.68%) were called active. This excerpt belongs to a sample that is enriched for actives.
Measured inhibition of individual entries

compound	target system	quantity unit	inhibition
COCCn1c(C)cc(C(=O)CSc2nc3ccccc3o2)c1C	Mannose-6-phosphate isomerase (Homo sapiens)	%	-1.7
O=C(/C=C\NCC(=O)c1ccccc1)c1ccc(F)cc1	Mannose-6-phosphate isomerase (Homo sapiens)	%	-70.8
CCCCn1nnnc1SCC(=O)c1ccc(C)c(C)c1	Mannose-6-phosphate isomerase (Homo sapiens)	%	7.7
COCc1cc(C)[nH]c(=O)c1C#N	Mannose-6-phosphate isomerase (Homo sapiens)	%	-5.6
Fc1ccc(CN2CCCCCCC2)cc1	Mannose-6-phosphate isomerase (Homo sapiens)	%	-6.8
CC(=O)NCCc1ccc(S(=O)(=O)N2CCOCC2)cc1	Mannose-6-phosphate isomerase (Homo sapiens)	%	-2.7
CCOC(=O)CSc1[nH]c2cc(OC)ccc2c1[N+](=O)[O-]	Mannose-6-phosphate isomerase (Homo sapiens)	%	9.3
CCOc1cc(C(=O)N2CCN(c3ccc(C(C)=O)cc3)CC2)cc(OCC)c1OCC	Mannose-6-phosphate isomerase (Homo sapiens)	%	6.8
Cn1nnnc1SCCNCc1ccc(Cl)cc1	Mannose-6-phosphate isomerase (Homo sapiens)	%	3.8
CC1SC(c2ccc(Cl)cc2)NC1=O (stereo not drawn)	Mannose-6-phosphate isomerase (Homo sapiens)	%	7.4
NNC(=O)COc1ncn(-c2ccccc2)n1	Mannose-6-phosphate isomerase (Homo sapiens)	%	4.5
Nc1nc(NCCCN2CCOCC2)nc(Nc2ccc(F)cc2)c1[N+](=O)[O-]	Mannose-6-phosphate isomerase (Homo sapiens)	%	-6.1
CC1=CC(C)(C)Nc2ccccc21	Mannose-6-phosphate isomerase (Homo sapiens)	%	23.6
